target of assay: AgBbc1
experimental protocol: SPOT peptide array binding signal intensity (averaged, normalized) (arbitrary units (background-subtracted, floor 0; scale differs between SH3 domains)); higher = stronger binding of the SH3 domain to the peptide
Entries and their measured SPOT peptide array binding signal intensity follow.
measured property: SPOT peptide array binding signal intensity

RKNRAPPQRPRFNRD	476
YRRKSIPFAPHQITA	11.5
RPPRPPPKPLHLRTE	559
SAPDIPPRSPNRNAH	498
VQQDSLPKLPFRSWG	38.2
IHTRRPSSTSQYLIR	354
